- experimental details: gradient 5% acetonitrile 3 min, to 50% in 2 min, to 85% in 15 min, held 3 min, 100 µL/min
- condition label: column: Zorbax Extend-C18 2.1 x 50 mm; eluents: water / acetonitrile, 0.1% formic acid
Label label 1 when RP-LC retention time < 700 s; otherwise label 0.

{"compound": "CCOc1ccc(CC(=O)N2C[C@@H]3C[C@H]2C[C@@H]3NC(=O)c2ccccc2)cc1", "qualitative label": "label 0"}
{"compound": "Cc1ccc2nc(-c3ccc(Cl)cc3)c(Nc3ccc4c(c3)OCO4)n2c1", "qualitative label": "label 0"}
{"compound": "COC(=O)c1c(NCCc2ccccc2)c2cccc(Cl)c2[nH]c1=O", "qualitative label": "label 0"}
{"compound": "COc1cccc(-c2cc(NCc3ccc4c(c3)OCO4)nc(N)n2)c1", "qualitative label": "label 0"}
{"compound": "C[C@H]1CN(C(=O)Nc2ccc3c(c2)CCC3)C[C@@H]1c1nc(-c2cccnc2)no1", "qualitative label": "label 0"}
{"compound": "CC(=O)Nc1cccc(C2OC(c3c(OC(C)=O)ccc4ccccc34)=NN2C(C)=O)c1 (centres undefined)", "qualitative label": "label 0"}
{"compound": "CCCN(C)CC1(O)CCC2(CCN(C(=O)c3ccc(Cl)s3)CC2)CC1", "qualitative label": "label 1"}
{"compound": "CN1c2cc(F)ccc2C(=O)NC12CCN(C(=O)c1ccccc1F)CC2", "qualitative label": "label 0"}

Challenge: Please check: RP-LC retention time for "CCN1c2cc(F)ccc2C(=O)NC12CCN(C(=O)c1ccccc1)CC2" , strictly under 700 s or not?
Response given: label 0

Challenge: Also, "COCCN1C(=O)CS(=O)(=O)C12CCN(C(=O)C1(c3ccc(OC)cc3)CC1)CC2" please.
Response given: label 1

Challenge: Also, "CCCCOc1ccc(-c2cc3c4nn(CC(=O)NC5CCCC5)c(=O)n4ccn3n2)cc1" please.
Response given: label 0

Challenge: Also, "CCOc1ccccc1-c1noc(Cn2cnc3c(cnn3-c3ccc(C)c(Cl)c3)c2=O)n1" please.
Response given: label 0

###

- experimental details: gradient 5% acetonitrile 3 min, to 50% in 2 min, to 85% in 15 min, held 3 min, 100 µL/min
- condition label: column: Zorbax Extend-C18 2.1 x 50 mm; eluents: water / acetonitrile, 0.1% formic acid
measured property: RP-LC retention time (s)
Answers are plain numbers, in s.

Here's what some known entries look like.
{"molecule": "COc1ccc(-c2noc(N3CCC(C(=O)N4CCN(C5CCCCC5)CC4)CC3)n2)cc1OC", "RP-LC retention time / s": 632}
{"molecule": "CC(C)(C)OC(=O)Cn1cnc2c(-c3ccc(Cl)cc3)csc2c1=O", "RP-LC retention time / s": 1120}
{"molecule": "CCCN1C(=O)CCc2c(C)nc(-c3ccc(C)cc3)nc21", "RP-LC retention time / s": 1150}

Record RP-LC retention time per entry; entries follow.
1. COc1ccc(Cl)cc1NC(=O)CC1CCCCN1S(=O)(=O)c1ccc(F)cc1 (stereo not given)
2. Cc1ccc(NC(=O)C2CCN(S(=O)(=O)c3ccc4c(c3)NC(=O)CO4)CC2)c(C)c1
3. COc1cc(-c2nnc(C)o2)ccc1C
4. Cc1ccccc1Cn1cc(-c2ccncc2)cc1C(=O)NCC(C)C
5. CN1C(=O)Cc2cc(C(=O)N3CCN(c4ccccc4Cl)CC3)ccc21
6. CCN1CCN(c2ccc(N3CCCC(C(=O)N4CCN(c5cccc(Cl)c5)CC4)C3)nn2)CC1 (stereo not given)

Response given:
1. 1080
2. 732
3. 828
4. 712
5. 825
6. 610

Challenge: Any idea what its RP-LC retention time is? The molecule is "CCCn1nc(C)cc1CN(C)c1ccc(NC(=O)CC)cc1C(=O)O"
Response given: 618
